- target.or.system: PI 3-kinase gamma (Homo sapiens)
- Sequence (P48736 whole entry): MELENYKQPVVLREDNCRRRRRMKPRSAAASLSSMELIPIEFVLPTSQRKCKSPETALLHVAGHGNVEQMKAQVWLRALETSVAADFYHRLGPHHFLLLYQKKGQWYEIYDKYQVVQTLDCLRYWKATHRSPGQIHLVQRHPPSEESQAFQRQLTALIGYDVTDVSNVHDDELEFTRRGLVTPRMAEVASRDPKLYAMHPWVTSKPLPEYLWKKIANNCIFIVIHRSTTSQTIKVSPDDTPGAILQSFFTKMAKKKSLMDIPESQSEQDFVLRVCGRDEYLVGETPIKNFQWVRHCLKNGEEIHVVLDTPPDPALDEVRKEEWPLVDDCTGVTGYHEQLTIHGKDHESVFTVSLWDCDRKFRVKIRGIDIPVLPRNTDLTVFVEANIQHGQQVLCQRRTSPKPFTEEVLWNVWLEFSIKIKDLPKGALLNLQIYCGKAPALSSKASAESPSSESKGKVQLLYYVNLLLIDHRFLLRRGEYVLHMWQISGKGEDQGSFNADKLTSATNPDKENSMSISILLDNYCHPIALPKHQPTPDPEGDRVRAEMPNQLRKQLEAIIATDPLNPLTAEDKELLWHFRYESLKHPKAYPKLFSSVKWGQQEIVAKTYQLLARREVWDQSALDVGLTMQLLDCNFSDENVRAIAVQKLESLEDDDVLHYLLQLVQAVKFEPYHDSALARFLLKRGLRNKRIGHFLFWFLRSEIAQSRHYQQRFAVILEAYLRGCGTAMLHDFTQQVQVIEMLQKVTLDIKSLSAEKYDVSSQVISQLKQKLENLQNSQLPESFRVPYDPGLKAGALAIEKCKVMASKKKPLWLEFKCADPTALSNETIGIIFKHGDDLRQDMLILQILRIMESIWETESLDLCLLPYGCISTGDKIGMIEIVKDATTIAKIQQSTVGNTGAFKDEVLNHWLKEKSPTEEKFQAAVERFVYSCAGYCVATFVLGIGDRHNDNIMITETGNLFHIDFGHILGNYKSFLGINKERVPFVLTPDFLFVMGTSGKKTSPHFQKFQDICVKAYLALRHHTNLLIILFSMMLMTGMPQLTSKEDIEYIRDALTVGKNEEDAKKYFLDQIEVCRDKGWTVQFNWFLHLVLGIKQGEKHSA
- assay.explanation: TR-FRET Adapta assay, assay E
- Assay type: biochemical
- condition.label: read-out: Assay E PI3Kγ IC50
recorded.endpoint: IC50 (nM)

1. Cc1cc(C)n(-c2nc(-c3cc(S(=O)(=O)NCC(C)(C)O)ccc3C)cnc2N)n1 [Example 48]
2. Cc1ccc(S(=O)(=O)NCCC(C)(C)O)cc1-c1cnc(N)c(-c2ccncc2F)n1 [Example 119.11]
3. Cc1cc(-c2nc(-c3cc(S(=O)(=O)N[C@H]4CCC[C@@H]4N)ccc3C)cnc2N)ccn1 [Example 129.38]
Q: Rank the listed compounds, smallest IC50 first and largest last. Answer with the labels in sequence, matching the requested order.
Result: 1, 2, 3

====

- target.or.system: UniProt P42336
- assay.explanation: Kinase Glo Luminescent Kinase Assay (Kglo), assay A
- Assay type: biochemical
- condition.label: read-out: Assay A PI3Kα IC50
pIC50: −log10 of the molar value.
recorded.endpoint: pIC50

Example cases with answers are listed next.
Cc1nc(-c2nc(-c3cc(S(=O)(=O)NCCC(C)(C)O)ccc3C)cnc2N)cs1; 6.77
Cc1ccc(S(=O)(=O)N[C@H](C#N)CO)cc1-c1cnc(N)c(-n2cncn2)n1; 5.92
Cc1ccc(S(=O)(=O)NCC(C)(C)O)cc1-c1cnc(N)c(-n2cc(C)c(C)n2)n1; 6.48
Cc1ccc(S(=O)(=O)N[C@H]2CC[C@H](O)CC2)cc1-c1cnc(N)c(-c2nc(C(C)C)no2)n1; 6.41
Cc1cc(Cl)c(S(=O)(=O)NCC(C)(C)O)cc1-c1cnc(N)c(-n2cncn2)n1; 7.40

a. Cc1ccc(S(=O)(=O)NCCC(C)(C)O)cc1-c1cnc(N)c(-n2ccnc2)n1
b. Cc1csc(-c2nc(-c3cc(S(=O)(=O)NCCC(C)(C)O)ccc3C)cnc2N)c1
Q: Lowest pIC50? choose a or b Select an item and report its label.
Result: a

====

- target.or.system: PI 3-kinase gamma (Homo sapiens)
- assay.explanation: Cellular U937 AKT assay K1 (MSD)
- Assay type: cell-based
- condition.label: U937 cells, K1 format; read-out: Assay K1 PI3Kγ IC50
recorded.endpoint: IC50 (µM)

Cc1ccc(S(=O)(=O)NC2CCOCC2)cc1-c1cnc(N)c(-n2cncn2)n1; 0.43

I. Cc1ncc(-c2nc(-c3cc(S(=O)(=O)NCC(C)(C)CO)ccc3C)cnc2N)s1
II. Cc1cc(-c2nc(-c3cc(S(=O)(=O)NCC4CCOC4)ccc3C)cnc2N)ccn1 (centres unmarked)
Q: Lab note: check whether I or II shows the higher recorded IC50. Return value: the label identifying the chosen record.
Result: II
(II: 0.528 µM, I: 0.021 µM)

====

- target.or.system: PI 3-kinase beta (Homo sapiens, UniProt P42338)
- Sequence (P42338 whole entry): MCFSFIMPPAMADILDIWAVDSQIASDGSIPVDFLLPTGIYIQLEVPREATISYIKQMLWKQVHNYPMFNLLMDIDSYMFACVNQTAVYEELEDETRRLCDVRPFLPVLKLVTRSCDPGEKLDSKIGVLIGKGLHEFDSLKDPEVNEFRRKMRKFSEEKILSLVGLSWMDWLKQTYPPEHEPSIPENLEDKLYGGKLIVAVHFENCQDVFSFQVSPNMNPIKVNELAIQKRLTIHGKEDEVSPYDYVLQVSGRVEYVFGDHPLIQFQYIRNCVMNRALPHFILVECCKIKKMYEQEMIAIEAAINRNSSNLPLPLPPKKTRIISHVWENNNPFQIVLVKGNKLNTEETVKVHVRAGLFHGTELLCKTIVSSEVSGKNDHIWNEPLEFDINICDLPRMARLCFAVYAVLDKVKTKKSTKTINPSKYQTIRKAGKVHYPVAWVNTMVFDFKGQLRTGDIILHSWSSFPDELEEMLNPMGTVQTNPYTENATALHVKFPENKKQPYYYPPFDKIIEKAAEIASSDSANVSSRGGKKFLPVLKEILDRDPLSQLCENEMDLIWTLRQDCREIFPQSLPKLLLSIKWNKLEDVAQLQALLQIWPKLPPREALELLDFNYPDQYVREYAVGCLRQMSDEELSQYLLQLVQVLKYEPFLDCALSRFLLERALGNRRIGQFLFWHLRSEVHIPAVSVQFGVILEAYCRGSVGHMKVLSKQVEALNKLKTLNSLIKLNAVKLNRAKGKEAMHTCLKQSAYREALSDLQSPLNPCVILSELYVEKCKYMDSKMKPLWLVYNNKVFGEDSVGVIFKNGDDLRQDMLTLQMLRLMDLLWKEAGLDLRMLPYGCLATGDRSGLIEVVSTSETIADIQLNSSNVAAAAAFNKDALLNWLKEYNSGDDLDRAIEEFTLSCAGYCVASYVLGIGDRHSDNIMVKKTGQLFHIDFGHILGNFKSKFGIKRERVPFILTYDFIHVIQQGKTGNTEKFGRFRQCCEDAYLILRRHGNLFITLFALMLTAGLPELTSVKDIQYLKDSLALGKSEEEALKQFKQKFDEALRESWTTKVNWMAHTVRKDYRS
- Sequence (P27986 461-568 partner): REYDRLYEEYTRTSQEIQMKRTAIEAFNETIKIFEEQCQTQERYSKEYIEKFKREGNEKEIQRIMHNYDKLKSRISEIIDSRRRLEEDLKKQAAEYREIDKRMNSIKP
- assay.explanation: Kinase Glo Luminescent Kinase Assay (Kglo), assay B
- Assay type: biochemical
- condition.label: read-out: Assay B PI3Kβ IC50
pIC50: −log10 of the molar value.
recorded.endpoint: pIC50

Please review the entries below; each comes with its answer.
Cc1ncn(-c2nc(-c3cc(S(=O)(=O)NCC(C)(C)O)ccc3C)cnc2N)n1; 5.50
Cc1cc(-c2nc(-c3cc(S(=O)(=O)N[C@H]4CC[C@H](N)CC4)ccc3C)cnc2N)ccn1; 5.24
Cc1noc(-c2nc(-c3cc(S(=O)(=O)NCCC(C)(C)O)ccc3C)cnc2N)n1; 5.23

I. Cc1ccc(S(=O)(=O)N[C@H]2CC[C@H](O)CC2)cc1-c1cnc(N)c(-c2ccnc(F)c2)n1
II. Cc1ncc(-c2nc(-c3cc(S(=O)(=O)NCCC(C)(C)O)ccc3C)cnc2N)s1
Q: Problem: Given the entries I and II , determine which has the lower reported pIC50. Reply with the label of the item you choose.
Result: I

P. Cc1ncc(-c2nc(-c3cc(S(=O)(=O)NCC4(CO)COC4)ccc3C)cnc2N)s1
Q. Cc1ccc(S(=O)(=O)NC[C@H]2C[C@@H](O)C2)cc1-c1cnc(N)c(-c2cc(C3CC3)no2)n1
R. Cc1ccc(S(=O)(=O)NCC(=O)C(C)(C)C)cc1-c1cnc(N)c(-n2cncn2)n1
S. Cc1cc(-c2nc(-c3cc(S(=O)(=O)NCC4(C(N)=O)CCOCC4)ccc3C)cnc2N)ccn1
T. Cc1ccc(S(=O)(=O)N2CC(F)C2)cc1-c1cnc(N)c(-n2cncn2)n1
Q: Given 5 compounds, produce a descending ranking by pIC50. Hello, could you send the labels back in the order asked? Thank you.
Result: P, R, S, T, Q

I. COc1cc(-c2nc(-c3cc(S(=O)(=O)NCCC(C)(C)O)ccc3C)cnc2N)ccn1
II. Cc1cc(-c2nc(-c3cc(S(=O)(=O)NCCC(C)(C)O)ccc3C)cnc2N)on1
Q: Of I and II , which one carries the higher reported pIC50? Kindly give the label for the entry you pick.
Result: II

A. Cc1ncc(-c2nc(-c3cc(S(=O)(=O)NC4CC(O)C4)ccc3C)cnc2N)s1 (mixture of isomers)
B. CCCc1noc(-c2nc(-c3cc(S(=O)(=O)N[C@H]4CC[C@H](O)CC4)ccc3C)cnc2N)n1
C. Cc1ccc(S(=O)(=O)NC[C@@](C)(O)C(F)(F)F)cc1-c1cnc(N)c(-n2cncn2)n1
D. Cc1cnn(-c2nc(-c3cc(S(=O)(=O)N[C@H]4CC[C@H](O)CC4)ccc3C)cnc2N)c1
Q: Ascending by pIC50, please: list the compounds accordingly. # the answer lists labels in the order requested
Result: B, D, C, A

a. Cc1ccc(S(=O)(=O)NCC(C)(C)O)cc1-c1cnc(N)c(-c2cnn(C)c2C)n1
b. Cc1ccc(-c2nc(-c3cc(S(=O)(=O)NCCC(C)(C)O)ccc3C)cnc2N)s1
Q: Out of a and b , name the one with the higher pIC50. Select an item and report its label.
Result: a

I. Cc1ccc(S(=O)(=O)NCC(F)(F)F)cc1-c1cnc(N)c(-n2cncn2)n1
II. Cc1ncc(S(=O)(=O)NCC(C)(C)O)cc1-c1cnc(N)c(-n2cncn2)n1
Q: For this pair, I and II , which shows a numerically higher pIC50? Select an item and report its label.
Result: I

====

- target.or.system: PI 3-kinase delta (Homo sapiens, UniProt O00329)
- Sequence (O00329 whole entry): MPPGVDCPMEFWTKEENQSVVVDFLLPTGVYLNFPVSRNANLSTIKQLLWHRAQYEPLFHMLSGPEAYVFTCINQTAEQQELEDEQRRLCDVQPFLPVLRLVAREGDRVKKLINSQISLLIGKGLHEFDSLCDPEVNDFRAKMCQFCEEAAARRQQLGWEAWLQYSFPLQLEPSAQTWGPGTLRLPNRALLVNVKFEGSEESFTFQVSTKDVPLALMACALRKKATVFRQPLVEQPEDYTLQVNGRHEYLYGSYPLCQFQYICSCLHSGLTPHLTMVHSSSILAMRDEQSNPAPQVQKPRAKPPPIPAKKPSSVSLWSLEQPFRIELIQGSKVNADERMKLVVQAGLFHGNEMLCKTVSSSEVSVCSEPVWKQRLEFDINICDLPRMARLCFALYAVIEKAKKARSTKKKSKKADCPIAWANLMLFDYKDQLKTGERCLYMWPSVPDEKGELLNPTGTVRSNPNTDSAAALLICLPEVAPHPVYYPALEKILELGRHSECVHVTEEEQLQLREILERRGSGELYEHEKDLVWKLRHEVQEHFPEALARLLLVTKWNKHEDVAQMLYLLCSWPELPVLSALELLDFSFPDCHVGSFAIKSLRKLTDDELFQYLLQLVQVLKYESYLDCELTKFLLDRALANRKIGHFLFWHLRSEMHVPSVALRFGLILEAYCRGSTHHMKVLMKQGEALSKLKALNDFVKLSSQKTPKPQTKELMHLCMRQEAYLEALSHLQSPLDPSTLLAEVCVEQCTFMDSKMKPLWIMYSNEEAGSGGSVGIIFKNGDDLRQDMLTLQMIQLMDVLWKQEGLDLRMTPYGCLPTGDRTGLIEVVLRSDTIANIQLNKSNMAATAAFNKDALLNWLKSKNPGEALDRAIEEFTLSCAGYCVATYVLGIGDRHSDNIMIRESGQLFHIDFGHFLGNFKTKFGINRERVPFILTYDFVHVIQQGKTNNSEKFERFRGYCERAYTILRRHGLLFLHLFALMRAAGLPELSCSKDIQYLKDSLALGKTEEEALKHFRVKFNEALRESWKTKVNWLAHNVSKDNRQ
- Sequence (P27986 461-568 partner): as the sequence (P27986 461-568 partner) above
- assay.explanation: TR-FRET Adapta assay, assay F
- condition.label: read-out: Assay F PI3Kδ IC50
pIC50: −log10 of the molar value.
recorded.endpoint: pIC50

Cc1cc(-c2nc(-c3cc(S(=O)(=O)NCC4CCN(C)C4)ccc3C)cnc2N)ccn1 (centres unmarked); 5.92
Cc1ccc(S(=O)(=O)NCCC(C)(C)O)cc1-c1cnc(N)c(-n2cnc(C(C)C)n2)n1; 7.10

A. Cc1ccc(S(=O)(=O)NCC(C)(C)O)cc1-c1cnc(N)c(-c2cnn(CCN(C)C)c2)n1
B. Cc1ncc(-c2nc(-c3cc(S(=O)(=O)NCCCO)ccc3C)cnc2N)s1
C. Cc1nc(-c2nc(-c3cc(S(=O)(=O)NCCC(C)(C)O)ccc3C)cnc2N)cs1
Q: Order the records by pIC50, with each subsequent value no larger than the one before. Response format: the labels, sorted as the prompt asks.
Result: B, C, A
(B: 7.22, C: 6.96, A: 6.00)

====

We begin with a simple list: items and their reported pIC50.
- target.or.system: UniProt:Q9UBF8
- Sequence (Q9UBF8 whole entry): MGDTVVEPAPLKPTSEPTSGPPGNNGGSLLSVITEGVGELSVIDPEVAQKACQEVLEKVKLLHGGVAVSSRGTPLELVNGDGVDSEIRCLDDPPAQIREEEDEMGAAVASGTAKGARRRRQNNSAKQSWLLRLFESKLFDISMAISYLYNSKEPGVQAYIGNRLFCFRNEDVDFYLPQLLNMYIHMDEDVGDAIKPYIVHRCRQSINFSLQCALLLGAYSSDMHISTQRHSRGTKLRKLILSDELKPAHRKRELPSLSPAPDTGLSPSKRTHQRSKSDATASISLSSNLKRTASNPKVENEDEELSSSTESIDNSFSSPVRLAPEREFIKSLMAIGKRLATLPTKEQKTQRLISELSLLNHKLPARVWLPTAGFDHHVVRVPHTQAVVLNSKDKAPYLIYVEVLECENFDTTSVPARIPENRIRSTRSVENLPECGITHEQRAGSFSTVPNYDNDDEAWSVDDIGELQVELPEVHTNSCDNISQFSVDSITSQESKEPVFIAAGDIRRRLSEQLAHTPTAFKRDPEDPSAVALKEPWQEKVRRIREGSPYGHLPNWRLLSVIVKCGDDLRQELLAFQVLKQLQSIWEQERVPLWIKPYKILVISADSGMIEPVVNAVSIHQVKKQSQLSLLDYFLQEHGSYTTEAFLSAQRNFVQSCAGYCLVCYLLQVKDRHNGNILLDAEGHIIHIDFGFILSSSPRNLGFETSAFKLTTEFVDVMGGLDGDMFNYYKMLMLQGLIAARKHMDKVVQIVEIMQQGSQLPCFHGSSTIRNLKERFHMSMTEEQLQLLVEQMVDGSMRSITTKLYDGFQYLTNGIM
- assay.explanation: Kinase Glo Luminescent Kinase Assay (Kglo), assay D
- Assay type: biochemical
- condition.label: read-out: Assay D PI4Kβ IC50
pIC50: −log10 of the molar value.

Please review the following examples before continuing.
Cc1ccc(S(=O)(=O)NCC(C)(C)N2CCOCC2)cc1-c1cnc(N)c(-n2cncn2)n1; < 5.00
Cc1cc(-c2nc(-c3cc(S(=O)(=O)NCC4(O)CCCCC4)ccc3C)cnc2N)ccn1; < 5.04
Cc1ccc(S(=O)(=O)NC[C@@H]2CCC(C)(C)O2)cc1-c1cnc(N)c(-n2cncn2)n1 [Example 127.39]; < 5.00

Continue with the next molecule.
Q: Provide only the value of recorded pIC50 for Cc1ccc(S(=O)(=O)NC[C@@H]2COCCN2C)cc1-c1cnc(N)c(-c2cn(C)nc2C)n1 (single isomer, unassigned)
Result: < 5.00

====

- target.or.system: mTOR (Homo sapiens, UniProt P42345)
- assay.explanation: Lanthascreen kinase binding assay, assay G
- condition.label: read-out: Assay G mTOR IC50
The entries below are paired with their reported IC50.

Illustrative cases are given below, each with its answer.
Cc1ccc(S(=O)(=O)NCC2(O)COC2)cc1-c1cnc(N)c(-n2cncn2)n1 [Example 127.47]; > 10 µM
COCCCNS(=O)(=O)c1ccc(C)c(-c2cnc(N)c(-n3cncn3)n2)c1 [Example 127.10]; > 10 µM
Cc1cc(F)c(S(=O)(=O)NCCC(C)(C)O)cc1-c1cnc(N)c(-n2cncn2)n1 [Example 116]; > 9.1 µM
Cc1ccc(S(=O)(=O)NCC(N)=O)cc1-c1cnc(N)c(-n2cncn2)n1 [Example 133]; > 9.55 µM
Cc1ccc(S(=O)(=O)NCCC(C)(C)O)cc1-c1cnc(N)c(-c2cnn(C)c2C)n1 [Example 119.19]; > 9.1 µM

Q: Answer with reported IC50 of Cc1nc(C)c(-c2nc(-c3cc(S(=O)(=O)NCC(C)(C)O)ccc3C)cnc2N)s1 [Example 46.1]
Result: > 10 µM

Q: Check the records and state IC50 for Cc1ccc(S(=O)(=O)NCCC(C)(C)O)cc1-c1cnc(N)c(-c2cnn(C)c2)n1 [Example 119.16]
Result: > 9.1 µM

Q: In one line, give reported IC50 of the entry CCn1cc(-c2nc(-c3cc(S(=O)(=O)NCC(C)(C)O)ccc3C)cnc2N)nn1 [Example 83] .
Result: > 10 µM

Q: For the compound Cc1ccc(S(=O)(=O)NCC2(O)CCCC2)cc1-c1cnc(N)c(-n2cncn2)n1 [Example 127.35] , give its measured IC50 value.
Result: 7.1 µM
